protocol-summary: Cytotoxicity against human NPC-TW01 cells after 72 hrs by MTT assay
Assay type: functional, cell-based
reported-conditions: NPC-TW01, 72 h
readout: pIC50
Scale for pIC50: -log10 of concentration given in mol/L; no unit attached.

Worked examples follow.
CO[C@@H]1O[C@H](C(=O)O)[C@@H](O)[C@H](O)[C@H]1OC(=O)CCC(=O)O[C@@H](C(=O)O[C@H]1C[C@@]2(O)[C@@H](OC(=O)c3ccccc3)[C@@H]3[C@]4(OC(C)=O)CO[C@@H]4C[C@H](O)[C@@]3(C)C(=O)[C@H](OC(C)=O)C(=C1C)C2(C)C)[C@@H](NC(=O)c1ccccc1)c1ccccc1 = 7.17
CO[C@@H]1O[C@H](CO)[C@@H](O)[C@H](O)[C@H]1OC(=O)CCC(=O)O[C@@H](C(=O)O[C@H]1C[C@@]2(O)[C@@H](OC(=O)c3ccccc3)[C@@H]3[C@]4(OC(C)=O)CO[C@@H]4C[C@H](O)[C@@]3(C)C(=O)[C@H](OC(C)=O)C(=C1C)C2(C)C)[C@@H](NC(=O)c1ccccc1)c1ccccc1 = 7.60
CO[C@@H]1O[C@H](C(=O)O)[C@@H](O)[C@H](O)[C@H]1OCCCC(=O)O[C@@H](C(=O)O[C@H]1C[C@@]2(O)[C@@H](OC(=O)c3ccccc3)[C@@H]3[C@]4(OC(C)=O)CO[C@@H]4C[C@H](O)[C@@]3(C)C(=O)[C@H](OC(C)=O)C(=C1C)C2(C)C)[C@@H](NC(=O)c1ccccc1)c1ccccc1 = 7.17

CO[C@@H]1O[C@H](CO)[C@@H](O)[C@H](O)[C@H]1OCCCC(=O)O[C@@H](C(=O)O[C@H]1C[C@@]2(O)[C@@H](OC(=O)c3ccccc3)[C@@H]3[C@]4(OC(C)=O)CO[C@@H]4C[C@H](O)[C@@]3(C)C(=O)[C@H](OC(C)=O)C(=C1C)C2(C)C)[C@@H](NC(=O)c1ccccc1)c1ccccc1 yielded pIC50 of 7.11

* * *

protocol-summary: Cytotoxicity against human Hep3B cells after 72 hrs by MTT assay
Type: functional, cell-based, Hep 3B2
Recorded pIC50 for the following compounds
Entry type: numeric. Quantity: pIC50, the -log10 of concentration in molar units.

CC(=O)O[C@H]1C(=O)[C@@]2(C)[C@H]([C@H](OC(=O)c3ccccc3)[C@]3(O)C[C@H](OC(=O)[C@H](O)[C@@H](NC(=O)c4ccccc4)c4ccccc4)C(C)=C1C3(C)C)[C@]1(OC(C)=O)CO[C@@H]1C[C@@H]2O [PACLITAXEL] = 5.14

Now examine the next entry.
The compound CO[C@@H]1O[C@H](CO)[C@@H](O)[C@H](O)[C@H]1OC(=O)CCC(=O)O[C@@H](C(=O)O[C@H]1C[C@@]2(O)[C@@H](OC(=O)c3ccccc3)[C@@H]3[C@]4(OC(C)=O)CO[C@@H]4C[C@H](O)[C@@]3(C)C(=O)[C@H](OC(C)=O)C(=C1C)C2(C)C)[C@@H](NC(=O)c1ccccc1)c1ccccc1 showed pIC50 equal to 4.00

* * *

System: CHO-K1
protocol-summary: Selectivity index, ratio of IC50 for CHOK1 cells to IC50 for human NPC-TW01 cells
Format: functional
Measured Selectivity Index, listed per entry.

Take a look at these entries with their results.
CO[C@@H]1O[C@H](C(=O)O)[C@@H](O)[C@H](O)[C@H]1OCCCC(=O)O[C@@H](C(=O)O[C@H]1C[C@@]2(O)[C@@H](OC(=O)c3ccccc3)[C@@H]3[C@]4(OC(C)=O)CO[C@@H]4C[C@H](O)[C@@]3(C)C(=O)[C@H](OC(C)=O)C(=C1C)C2(C)C)[C@@H](NC(=O)c1ccccc1)c1ccccc1 = 2790
CO[C@@H]1O[C@H](C(=O)O)[C@@H](O)[C@H](O)[C@H]1OC(=O)CCC(=O)O[C@@H](C(=O)O[C@H]1C[C@@]2(O)[C@@H](OC(=O)c3ccccc3)[C@@H]3[C@]4(OC(C)=O)CO[C@@H]4C[C@H](O)[C@@]3(C)C(=O)[C@H](OC(C)=O)C(=C1C)C2(C)C)[C@@H](NC(=O)c1ccccc1)c1ccccc1 = > 670
CO[C@@H]1O[C@H](CO)[C@@H](O)[C@H](O)[C@H]1OC(=O)CCC(=O)O[C@@H](C(=O)O[C@H]1C[C@@]2(O)[C@@H](OC(=O)c3ccccc3)[C@@H]3[C@]4(OC(C)=O)CO[C@@H]4C[C@H](O)[C@@]3(C)C(=O)[C@H](OC(C)=O)C(=C1C)C2(C)C)[C@@H](NC(=O)c1ccccc1)c1ccccc1 = > 250

Next item in the queue.
Measured Selectivity Index, CO[C@@H]1O[C@H](CO)[C@@H](O)[C@H](O)[C@H]1OCCCC(=O)O[C@@H](C(=O)O[C@H]1C[C@@]2(O)[C@@H](OC(=O)c3ccccc3)[C@@H]3[C@]4(OC(C)=O)CO[C@@H]4C[C@H](O)[C@@]3(C)C(=O)[C@H](OC(C)=O)C(=C1C)C2(C)C)[C@@H](NC(=O)c1ccccc1)c1ccccc1 : > 780

* * *

pIC50 values, listed per item
protocol-summary: Cytotoxicity against CHOK1 cells after 72 hrs by MTT assay
Format: cell-based
reported-conditions: Cricetulus griseus, CHO-K1, 72 h
Note on pIC50: it is the negative log10 of concentration, concentration in mol/L.

CO[C@@H]1O[C@H](C(=O)O)[C@@H](O)[C@H](O)[C@H]1OCCCC(=O)O[C@@H](C(=O)O[C@H]1C[C@@]2(O)[C@@H](OC(=O)c3ccccc3)[C@@H]3[C@]4(OC(C)=O)CO[C@@H]4C[C@H](O)[C@@]3(C)C(=O)[C@H](OC(C)=O)C(=C1C)C2(C)C)[C@@H](NC(=O)c1ccccc1)c1ccccc1 = 4.62

Here's the next entry for you.
response.value for CC(=O)O[C@H]1C(=O)[C@@]2(C)[C@H]([C@H](OC(=O)c3ccccc3)[C@]3(O)C[C@H](OC(=O)[C@H](O)[C@@H](NC(=O)c4ccccc4)c4ccccc4)C(C)=C1C3(C)C)[C@]1(OC(C)=O)CO[C@@H]1C[C@@H]2O (field: pIC50) = 4.80

* * *

protocol-summary: Solubility in PBS buffer
Assay type: physicochemical
# key: entry, value: solubility
A number alone suffices; assume µg/mL.

Observe how each entry below is paired with its result.
CO[C@@H]1O[C@H](CO)[C@@H](O)[C@H](O)[C@H]1OCCCC(=O)O[C@@H](C(=O)O[C@H]1C[C@@]2(O)[C@@H](OC(=O)c3ccccc3)[C@@H]3[C@]4(OC(C)=O)CO[C@@H]4C[C@H](O)[C@@]3(C)C(=O)[C@H](OC(C)=O)C(=C1C)C2(C)C)[C@@H](NC(=O)c1ccccc1)c1ccccc1 = 80
CO[C@@H]1O[C@H](C(=O)O)[C@@H](O)[C@H](O)[C@H]1OC(=O)CCC(=O)O[C@@H](C(=O)O[C@H]1C[C@@]2(O)[C@@H](OC(=O)c3ccccc3)[C@@H]3[C@]4(OC(C)=O)CO[C@@H]4C[C@H](O)[C@@]3(C)C(=O)[C@H](OC(C)=O)C(=C1C)C2(C)C)[C@@H](NC(=O)c1ccccc1)c1ccccc1 = 104
CO[C@@H]1O[C@H](CO)[C@@H](O)[C@H](O)[C@H]1OC(=O)CCC(=O)O[C@@H](C(=O)O[C@H]1C[C@@]2(O)[C@@H](OC(=O)c3ccccc3)[C@@H]3[C@]4(OC(C)=O)CO[C@@H]4C[C@H](O)[C@@]3(C)C(=O)[C@H](OC(C)=O)C(=C1C)C2(C)C)[C@@H](NC(=O)c1ccccc1)c1ccccc1 = 53

solubility recorded for this compound, CO[C@@H]1O[C@H](C(=O)O)[C@@H](O)[C@H](O)[C@H]1OCCCC(=O)O[C@@H](C(=O)O[C@H]1C[C@@]2(O)[C@@H](OC(=O)c3ccccc3)[C@@H]3[C@]4(OC(C)=O)CO[C@@H]4C[C@H](O)[C@@]3(C)C(=O)[C@H](OC(C)=O)C(=C1C)C2(C)C)[C@@H](NC(=O)c1ccccc1)c1ccccc1 , is 137

* * *

As shown below, each of these compounds has a reported Selectivity Index value.
Test system: HUVEC
protocol-summary: Selectivity index, ratio of IC50 for HUVEC cells to IC50 for human NPC-TW01 cells
Assay type: functional

Please review the entries below; each comes with its answer.
CO[C@@H]1O[C@H](C(=O)O)[C@@H](O)[C@H](O)[C@H]1OC(=O)CCC(=O)O[C@@H](C(=O)O[C@H]1C[C@@]2(O)[C@@H](OC(=O)c3ccccc3)[C@@H]3[C@]4(OC(C)=O)CO[C@@H]4C[C@H](O)[C@@]3(C)C(=O)[C@H](OC(C)=O)C(=C1C)C2(C)C)[C@@H](NC(=O)c1ccccc1)c1ccccc1 = > 670
CO[C@@H]1O[C@H](CO)[C@@H](O)[C@H](O)[C@H]1OC(=O)CCC(=O)O[C@@H](C(=O)O[C@H]1C[C@@]2(O)[C@@H](OC(=O)c3ccccc3)[C@@H]3[C@]4(OC(C)=O)CO[C@@H]4C[C@H](O)[C@@]3(C)C(=O)[C@H](OC(C)=O)C(=C1C)C2(C)C)[C@@H](NC(=O)c1ccccc1)c1ccccc1 = > 250

For this compound ( CO[C@@H]1O[C@H](C(=O)O)[C@@H](O)[C@H](O)[C@H]1OCCCC(=O)O[C@@H](C(=O)O[C@H]1C[C@@]2(O)[C@@H](OC(=O)c3ccccc3)[C@@H]3[C@]4(OC(C)=O)CO[C@@H]4C[C@H](O)[C@@]3(C)C(=O)[C@H](OC(C)=O)C(=C1C)C2(C)C)[C@@H](NC(=O)c1ccccc1)c1ccccc1 ), measured Selectivity Index is 1520

Short answer for CO[C@@H]1O[C@H](CO)[C@@H](O)[C@H](O)[C@H]1OCCCC(=O)O[C@@H](C(=O)O[C@H]1C[C@@]2(O)[C@@H](OC(=O)c3ccccc3)[C@@H]3[C@]4(OC(C)=O)CO[C@@H]4C[C@H](O)[C@@]3(C)C(=O)[C@H](OC(C)=O)C(=C1C)C2(C)C)[C@@H](NC(=O)c1ccccc1)c1ccccc1 : Selectivity Index was > 780

Cited source for all entries: ChEMBL document CHEMBL1140842
